Below is a list of entries, each paired with its recorded change in vivo at 10 ppm value.
Tested on: mungbean
measurement.protocol: Mungbean pouch assay: growth of primary root and shoot
Assay type: in vivo
condition.context: 96 h; 10 ppm (10 mg/L); benzyl ring substitutions; read-out: Percent Change in Primary Root Length of Mungbean
Remember to follow the number with its unit.

Lab entry: mungbean assay, molecule Cc1cccc(CSc2nccc(O)n2)c1 , change in vivo at 10 ppm = 5.9%

Entry Oc1ccnc(SCc2cccc(F)c2)n1 under mungbean had change in vivo at 10 ppm of 10.4%

Note to self: change in vivo at 10 ppm of Oc1ccnc(SCc2ccccc2F)n1 with mungbean was 17.7%

Sample COc1cccc(CSc2nccc(O)n2)c1 , system: mungbean. Its change in vivo at 10 ppm is 17.5%

change in vivo at 10 ppm on mungbean for Oc1ccnc(SCc2ccccc2)n1 is 18.9%
